# TARGET_ENTITY: T1, Mouse Id1: Histidine (mouse, UniProt P20067-2 1-148, limits assumed)
# T1 construct: Fusion protein made in E. coli from vector pGW07; also called m-Id1-His; not shown: His tag
# T1 sequence (looked up): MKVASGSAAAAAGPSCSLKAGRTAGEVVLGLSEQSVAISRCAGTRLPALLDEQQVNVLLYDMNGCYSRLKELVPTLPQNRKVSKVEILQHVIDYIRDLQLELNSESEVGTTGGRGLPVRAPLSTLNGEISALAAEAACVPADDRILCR
# ASSAY_OVERVIEW: ELISA on coated wells, summary
MEASURED_QUANTITY: Cross-reactivity (%)

>>> observed_value("rabbit monoclonal anti-mouse/human Id3, clone #BCH-4/#42-1 (antibody, V domains shown, Rabbit IgG from a rabbit hybridoma; also called m/h Id3 MoAb 42-1) VH: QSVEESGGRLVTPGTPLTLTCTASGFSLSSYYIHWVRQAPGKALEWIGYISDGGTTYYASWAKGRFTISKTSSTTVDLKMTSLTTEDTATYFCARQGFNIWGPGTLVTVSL VL: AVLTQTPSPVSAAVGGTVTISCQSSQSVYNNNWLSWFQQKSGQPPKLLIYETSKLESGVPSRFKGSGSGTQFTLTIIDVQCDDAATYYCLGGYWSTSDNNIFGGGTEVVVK")
"< 1%"
>>> observed_value("rabbit monoclonal anti-mouse/human Id3, clone #BCH-4/#6-1 (antibody, V domains shown, Rabbit IgG from a rabbit hybridoma; also called m/h Id3 MoAb 6-1) VH: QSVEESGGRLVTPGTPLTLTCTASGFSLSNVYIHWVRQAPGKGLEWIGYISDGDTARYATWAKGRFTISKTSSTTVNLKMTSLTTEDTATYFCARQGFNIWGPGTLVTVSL VL: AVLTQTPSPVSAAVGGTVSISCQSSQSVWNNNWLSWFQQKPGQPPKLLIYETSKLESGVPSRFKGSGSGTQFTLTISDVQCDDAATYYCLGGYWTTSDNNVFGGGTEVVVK")
"< 1%"
>>> observed_value("rabbit monoclonal anti-mouse/human Id3, clone #BCH-4/#17-3 (antibody, V domains shown, Rabbit IgG from a rabbit hybridoma; also called m/h Id3 MoAb 17-3; BCH-3/#17-3) VH: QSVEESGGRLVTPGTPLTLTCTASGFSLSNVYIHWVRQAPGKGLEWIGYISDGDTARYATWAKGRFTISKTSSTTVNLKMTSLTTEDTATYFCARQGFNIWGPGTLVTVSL VL: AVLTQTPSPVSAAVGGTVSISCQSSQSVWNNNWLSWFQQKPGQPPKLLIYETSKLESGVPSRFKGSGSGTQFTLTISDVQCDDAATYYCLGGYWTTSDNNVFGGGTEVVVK")
"< 1%"
>>> observed_value("rabbit monoclonal anti-mouse/human Id3, clone #BCH-4/#16-1 (antibody, V domains shown, Rabbit IgG from a rabbit hybridoma; also called m/h Id3 MoAb 16-1) VH: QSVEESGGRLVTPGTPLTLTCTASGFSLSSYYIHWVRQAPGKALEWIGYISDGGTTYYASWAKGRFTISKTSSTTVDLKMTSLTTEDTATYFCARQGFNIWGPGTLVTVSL VL: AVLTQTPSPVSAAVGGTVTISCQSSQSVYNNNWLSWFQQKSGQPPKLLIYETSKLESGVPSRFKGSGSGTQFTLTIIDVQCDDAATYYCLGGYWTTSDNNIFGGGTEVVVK")
"< 1%"

Hello, the source for this data is patent US20070178531A1, in case you need it.
